Each entry below carries its recorded response.
B1: GST-tagged mouse ZO-1(PDZ1) (residues 18–110) [mouse] / His6-tagged thioredoxin (Trx) fusion protein of mouse CLD-3 C-terminus (Trx-CLD3, residues 210–219) [mouse] (parent complex)
chain 1: IWEQHTVTLHRAPGFGFGIAISGGRDNPHFQSGETSIVISDVLKGGPAEGQLQENDRVAMVNGVSMDNVEHAFAVQQLRKSGKNAKITIRRKK
chain 2: GTAYDRKDYV

- Variants of: B1
- experiment.notes: SPR; absence of phytic acid (gray bar); parent: 1.2e+03; read off a plot

>  <monomer.sequence>
chain 1 IWEQHTVTLHRAPGFGFGIAISGGRDNPHFQSGETSIVISDVLKGGPAEGQLQENDRVAMVNGVSMDNVEHAFAAQQLRKSGKNAKITIRRKK [chain 1 V75A]

>  <test.result>
~22 RU

$$$$

Data request, read-out response, for chain 1 IWEQHTVTLHRAPGFGAGIAISGGRDNPHFQSGETSIVISDVLKGGPAEGQLQENDRVAMVNGVSMDNVEHAFAVQQLRKSGKNAKITIRRKK [chain 1 F17A]
~15 RU

Please give the result for chain 1 IWEQHTVTLHRAPGFGFGIAISGGRDNPHFQSGETSIVISAVLKGGPAEGQLQENDRVAMVNGVSMDNVEHAFAVQQLRKSGKNAKITIRRKK [chain 1 D41A] too.
~110 RU

Please give the result for chain 1 IWEQHTVTLHRAPGFGFGIAISGGRDNPHFQSGETSIVISDVLKGGPAEGQLQENDRVAMVNGVSMDNVEHAFAVQQLAKSGKNAKITIRRKK [chain 1 R79A] too.
~40 RU

Please give the result for chain 1 IWEQHTVTLHRAPGFGFGIAISGGRDNPHFQSGETSIVISDVAKGGPAEGQLQENDRVAMVNGVSMDNVEHAFAVQQLRKSGKNAKITIRRKK [chain 1 L43A] too.
~28 RU
